Kindly state IC50 for each of the entries shown.
Test system: Jurkat (FADD−/−) cells
Assay: Inhibition of TNF-induced programmed Jurkat (FADD−/−) cell necrosis (Cell Titer-Glo)
Type: cell-based, human
Conditions: Homo sapiens, Jurkat, 20 h, TNF 10 ng/mL, intracellular ATP level, read-out: Cellular IC50 (M) Jurkat (FADD−/−)

Query: Fill blank: measured IC50 of the molecule `CN1C(=O)[C@@H](NC(=O)c2cnc(Cc3ccccc3)o2)CSc2cc3c(ccn3Cc3ccccc3)cc21` is ____.
Result: > 2e-06 M

Query: IC50; subject: `CN1C(=O)[C@@H](NC(=O)c2cnnn2Cc2ccccc2)CSc2cc3[nH]ccc3cc21`
Result: > 2e-06 M

Query: Give the measured IC50 of `CN1C(=O)[C@@H](NC(=O)c2ccc(Oc3ccccc3)cn2)COc2ccc3ncccc3c21` .
Result: > 2e-05 M

###

System: Jurkat (FADD−/−) cells
Test: Inhibition of TNF-induced programmed Jurkat (FADD−/−) cell necrosis (Cell Titer-Glo)
Assay type: cell-based, human
Conditions: Homo sapiens, Jurkat, 20 h, TNF 10 ng/mL, intracellular ATP level, read-out: Cellular IC50 (M) Jurkat (FADD−/−)
Property Measured: IC50 (M)
Give the quantity in M, number only.

Query: Fill in: IC50 of `CN1C(=O)[C@@H](NC(=O)c2cn(Cc3ccccc3)nn2)COc2cc3nccnc3cc21` is ___
Result: 5.43e-08

Query: # input compound: `COc1ncnc2cc3c(cc12)N(C)C(=O)[C@@H](NC(=O)c1ncn(Cc2ccccc2)n1)CO3` ; wanted: its IC50
Result: 4.61e-10

Query: Look up IC50: `CN1C(=O)[C@@H](NC(=O)c2nnc(Cc3ccccc3)[nH]2)COc2cc3nccnc3cc21`
Result: 4.25e-09

Query: Quick one: IC50 for `Cc1ccc(Cc2cc(C(=O)N[C@H]3CSc4cc5[nH]ccc5cc4N(C)C3=O)n(C)n2)cc1` ?
Result: 1.91e-08

Query: Which IC50 is listed for `CN1C(=O)[C@@H](NC(=O)c2cn(Cc3ccccc3)cn2)COc2cc3occc3cc21` ?
Result: 2.56e-09

Query: Reported IC50 for `CN1C(=O)[C@@H](NC(=O)c2cn(Cc3ccccc3)nn2)COc2ccc3cnccc3c21` : what is it?
Result: 4.44e-09

###

System: Jurkat (FADD−/−) cells
Assay: Inhibition of TNF-induced programmed Jurkat (FADD−/−) cell necrosis (Cell Titer-Glo)
Type: cell-based, human
Settings: Homo sapiens, Jurkat, 20 h, TNF 10 ng/mL, intracellular ATP level, read-out: Cellular IC50 (M) Jurkat (FADD−/−)
Please go through the items and note down their IC50.

Query: What measured IC50 is associated with Cc1ccc(Cc2cc(C(=O)N[C@H]3CSc4cc5c(ccn5C)cc4N(C)C3=O)n(C)n2)cc1 [RIP1-057] on Jurkat (FADD−/−) cells?
Result: > 2e-06 M

Query: Form field: IC50 recorded for Cc1nc2cc3c(cc2[nH]1)OC[C@H](NC(=O)c1cnn(Cc2ccccc2)c1)C(=O)N3C [RIP1-062] with Jurkat (FADD−/−) cells (enter value)
Result: > 2e-06 M

Query: Which measured IC50 belongs to CN1C(=O)[C@@H](NC(=O)c2ncn(Cc3ccccc3)n2)CSc2cc3c(ccn3Cc3ccccc3)cc21 [RIP1-086] , tested on Jurkat (FADD−/−) cells?
Result: > 2e-06 M

Where these numbers come from: patent US20210292340A1
